Overview of reported Conversion to Dicamba, Light, Day 0 across a group of molecules:
Method Description: In vitro photo-release and hydrolytic release of dicamba in an aqueous medium (Example 35)
Type: physicochemical
Measurement Setup: 0.01 mM ester, quartz tube, 14-hour day, 35° C., Day 0
Supply the numeric figure in %, leaving out any unit text.

Q: // returns reported Conversion to Dicamba, Light, Day 0 for input COc1c(Cl)ccc(Cl)c1C(=O)OCCc1ccccc1[N+](=O)[O-] [Ester 2, 2-Nitrophenethyl Ester of Dicamba]
Ans: 3

Q: // returns reported Conversion to Dicamba, Light, Day 0 for input COc1c(Cl)ccc(Cl)c1C(=O)Oc1ccc(=O)n(CCC(C)=O)n1 [Ester 32a]
Ans: 5

Q: // returns reported Conversion to Dicamba, Light, Day 0 for input COc1c(Cl)ccc(Cl)c1C(=O)Oc1cnc2ccccc2n1 [Ester 13a, 2-quinoxalinol ester of dicamba]
Ans: 8

Q: // returns reported Conversion to Dicamba, Light, Day 0 for input COc1ccc(OC(=O)c2c(Cl)ccc(Cl)c2OC)cc1 [Ester 30a, 4-methoxyphenyl ester of dicamba]
Ans: 6

Okay, now this molecule:
Q: // returns reported Conversion to Dicamba, Light, Day 0 for input COc1c(Cl)ccc(Cl)c1C(=O)OCc1ccccc1[N+](=O)[O-] [Ester 1a, 2-Nitrobenzyl Ester of Dicamba]
Ans: 7

###

Method Description: In vitro photo-release and hydrolytic release of dicamba in an aqueous medium (Example 35)
Assay type: physicochemical
Measurement Setup: 0.01 mM ester, quartz tube, 14-hour day, 35° C., Day 7
Property Name: Conversion to Dicamba, Light, Day 7 (%)
Supply the numeric figure in %, leaving out any unit text.

Q: // returns reported Conversion to Dicamba, Light, Day 7 for input COc1c(Cl)ccc(Cl)c1C(=O)Oc1ccc(=O)n(CCC(C)=O)n1 [Ester 32a]
Ans: 27

Q: // returns reported Conversion to Dicamba, Light, Day 7 for input COc1c(Cl)ccc(Cl)c1C(=O)OCc1ccccc1[N+](=O)[O-]
Ans: 29

Q: // returns reported Conversion to Dicamba, Light, Day 7 for input COc1c(Cl)ccc(Cl)c1C(=O)OCCc1ccccc1[N+](=O)[O-]
Ans: 78

Okay, now this compound:
Q: // returns reported Conversion to Dicamba, Light, Day 7 for input COc1c(Cl)ccc(Cl)c1C(=O)Oc1cnc2ccccc2n1 [Ester 13a, 2-quinoxalinol ester of dicamba]
Ans: 15

###

Method Description: In vitro dicamba photo-release from photo-labile dicamba esters, tetrahydrofuran solvent (Example 26)
Format: physicochemical
Measurement Setup: THF, 0.1 mM ester, simulated sunlight 14 hours per day, 35° C., 1 day
Overview of reported Conversion to dicamba, 1 day across a group of compounds:
Supply the numeric figure in %, leaving out any unit text.

Past entries and their recorded results:
Q: // returns reported Conversion to dicamba, 1 day for input CCCCOc1ccc(C(=O)COC(=O)c2c(Cl)ccc(Cl)c2OC)cc1
Ans: 16

Q: // returns reported Conversion to dicamba, 1 day for input COc1c(Cl)ccc(Cl)c1C(=O)Oc1cnc2ccccc2n1 [Ester 13a, 2-quinoxalinol ester of dicamba]
Ans: 28

Q: // returns reported Conversion to dicamba, 1 day for input COc1c(Cl)ccc(Cl)c1C(=O)OCCc1ccccc1[N+](=O)[O-]
Ans: 46

Q: // returns reported Conversion to dicamba, 1 day for input COc1ccc(C(=O)COC(=O)c2c(Cl)ccc(Cl)c2OC)cc1
Ans: 76

Okay, now this compound:
Q: // returns reported Conversion to dicamba, 1 day for input COc1c(Cl)ccc(Cl)c1C(=O)OCc1ccccc1[N+](=O)[O-]
Ans: 22

###

Method Description: In vitro photo-release and hydrolytic release of dicamba in an aqueous medium (Example 35)
Type: physicochemical
Measurement Setup: 0.01 mM ester, amber (dark) bottle, 35° C., Day 4
Property Name: Conversion to Dicamba, Dark, Day 4 (%)
Supply the numeric figure in %, leaving out any unit text.

Q: // returns reported Conversion to Dicamba, Dark, Day 4 for input COc1c(Cl)ccc(Cl)c1C(=O)OCc1ccccc1[N+](=O)[O-]
Ans: 7

New cases:
Q: // returns reported Conversion to Dicamba, Dark, Day 4 for input COc1c(Cl)ccc(Cl)c1C(=O)Oc1cnc2ccccc2n1 [Ester 13a, 2-quinoxalinol ester of dicamba]
Ans: 8

Q: // returns reported Conversion to Dicamba, Dark, Day 4 for input COc1c(Cl)ccc(Cl)c1C(=O)OCCc1ccccc1[N+](=O)[O-]
Ans: 3

Q: // returns reported Conversion to Dicamba, Dark, Day 4 for input COc1c(Cl)ccc(Cl)c1C(=O)Oc1ccc(=O)n(CCC(C)=O)n1 [Ester 32a]
Ans: 22

###

Method Description: In vitro photo-release and hydrolytic release of dicamba in an aqueous medium (Example 36)
Type: physicochemical
Measurement Setup: 0.01 mM (0.005 mM for diesters), quartz tube, Day 3
Overview of reported Conversion to Dicamba, Light, Day 3 across a group of compounds:
Supply the numeric figure in %, leaving out any unit text.

Past entries and their recorded results:
Q: // returns reported Conversion to Dicamba, Light, Day 3 for input COc1c(Cl)ccc(Cl)c1C(=O)Oc1ccc(=O)n(CCC=O)n1 [Ester 33a]
Ans: 19

Q: // returns reported Conversion to Dicamba, Light, Day 3 for input COc1c(Cl)ccc(Cl)c1C(=O)Oc1ccc(OC(=O)c2c(Cl)ccc(Cl)c2OC)nn1 [Ester 17, Maleic Hydrazide Diester of Dicamba]
Ans: 33

Q: // returns reported Conversion to Dicamba, Light, Day 3 for input COc1ccc(COC(=O)c2c(Cl)ccc(Cl)c2OC)cc1 [Ester 29a, 4-methoxybenzyl ester of dicamba]
Ans: 75

Q: // returns reported Conversion to Dicamba, Light, Day 3 for input C=C(C(=O)OCC)C(OC(=O)c1c(Cl)ccc(Cl)c1OC)c1ccccc1[N+](=O)[O-] (centres unmarked) [Ester 31a]
Ans: 46

Q: // returns reported Conversion to Dicamba, Light, Day 3 for input COc1c(Cl)ccc(Cl)c1C(=O)Oc1ccc(=O)n(CCC#N)n1 [Ester 34a]
Ans: 16

New cases:
Q: // returns reported Conversion to Dicamba, Light, Day 3 for input CCOC(=O)CCn1nc(OC(=O)c2c(Cl)ccc(Cl)c2OC)ccc1=O [Ester 35a]
Ans: 58

Q: // returns reported Conversion to Dicamba, Light, Day 3 for input COc1c(Cl)ccc(Cl)c1C(=O)Oc1nc(C(C)(C)C)cc(C(C)(C)C)c1C#N [Ester 36a]
Ans: 58

Q: // returns reported Conversion to Dicamba, Light, Day 3 for input COc1c(Cl)ccc(Cl)c1C(=O)Oc1ccccn1 [Ester 14, 2-Hydroxypyridine Ester of Dicamba]
Ans: 64

###

Method Description: In vitro photo-release and hydrolytic release of dicamba in an aqueous medium (Example 35)
Assay type: physicochemical
Measurement Setup: 0.01 mM ester, amber (dark) bottle, 35° C., Day 14
Property Name: Conversion to Dicamba, Dark, Day 14 (%)
Supply the numeric figure in %, leaving out any unit text.

Q: // returns reported Conversion to Dicamba, Dark, Day 14 for input COc1c(Cl)ccc(Cl)c1C(=O)OCCc1ccccc1[N+](=O)[O-]
Ans: 3

Q: // returns reported Conversion to Dicamba, Dark, Day 14 for input COc1c(Cl)ccc(Cl)c1C(=O)OCc1ccccc1[N+](=O)[O-]
Ans: 8

Q: // returns reported Conversion to Dicamba, Dark, Day 14 for input COc1ccc(OC(=O)c2c(Cl)ccc(Cl)c2OC)cc1 [Ester 30a, 4-methoxyphenyl ester of dicamba]
Ans: 17

Q: // returns reported Conversion to Dicamba, Dark, Day 14 for input COc1c(Cl)ccc(Cl)c1C(=O)Oc1ccc(=O)n(CCC(C)=O)n1 [Ester 32a]
Ans: 41

Q: // returns reported Conversion to Dicamba, Dark, Day 14 for input COc1c(Cl)ccc(Cl)c1C(=O)Oc1cnc2ccccc2n1 [Ester 13a, 2-quinoxalinol ester of dicamba]
Ans: 12

###

Overview of reported Conversion to dicamba, 2 days across a group of molecules:
Method Description: In vitro dicamba photo-release from photo-labile dicamba esters, tetrahydrofuran solvent (Example 26)
Format: physicochemical
Measurement Setup: THF, 0.1 mM ester, simulated sunlight 14 hours per day, 35° C., 2 days
Supply the numeric figure in %, leaving out any unit text.

Q: // returns reported Conversion to dicamba, 2 days for input COc1c(Cl)ccc(Cl)c1C(=O)OCCc1ccccc1[N+](=O)[O-] [Ester 2, 2-Nitrophenethyl Ester of Dicamba]
Ans: 54

Q: // returns reported Conversion to dicamba, 2 days for input COc1c(Cl)ccc(Cl)c1C(=O)Oc1cnc2ccccc2n1 [Ester 13a, 2-quinoxalinol ester of dicamba]
Ans: 35

Q: // returns reported Conversion to dicamba, 2 days for input COc1ccc(C(=O)COC(=O)c2c(Cl)ccc(Cl)c2OC)cc1 [Ester 9]
Ans: 91

Q: // returns reported Conversion to dicamba, 2 days for input COc1c(Cl)ccc(Cl)c1C(=O)OCc1ccccc1[N+](=O)[O-] [Ester 1a, 2-Nitrobenzyl Ester of Dicamba]
Ans: 33

Okay, now this molecule:
Q: // returns reported Conversion to dicamba, 2 days for input CCCCOc1ccc(C(=O)COC(=O)c2c(Cl)ccc(Cl)c2OC)cc1 [Ester 10]
Ans: 15
